target-entity: T1, PSMA Fab (006 PSMA Fab)
T1 construct: also called Anti-PSMA Fab
assay-explanation: clonal phage ELISA on biotinylated PSMA Fab captured on neutravidin, anti-M13 HRP detection;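 also: crude clonal phage supernatants added to wells pretreated with PSMA antigen in blocking buffer or with blocking buffer only, then briefly incubated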
Property: Phage binding ELISA signal, Anti-PSMA Fab; scope: individual binders
Reply briefly: the number, and no unit.

Use these answered entries as a reference point.
AWMRCEPAWMCVGF (Peptide-180 library clone, tested as clonal phage supernatant with the peptide fused to pIII of the bacteriophage) [Phage-3573]; 1.62
ELLKCVPQWMCTGF (Peptide-180 library clone, tested as clonal phage supernatant with the peptide fused to pIII of the bacteriophage) [Phage-3565]; 1.63
VSTMCVPEWMCGGF (Peptide-180 library clone, tested as clonal phage supernatant with the peptide fused to pIII of the bacteriophage) [Phage-3566]; 1.63
DDIRCEPIWMCTGF (Peptide-180 library clone, tested as clonal phage supernatant with the peptide fused to pIII of the bacteriophage) [Phage-3562]; 1.64
VPTLCKPSWMCYGF (Peptide-180 library clone, tested as clonal phage supernatant with the peptide fused to pIII of the bacteriophage) [Phage-3572]; 1.62

Record request: Phage binding ELISA signal, Anti-PSMA Fab value, item DAMLCRPSWMCDGF (Peptide-180 library clone, tested as clonal phage supernatant with the peptide fused to pIII of the bacteriophage) [Phage-3567] 1.62

Recorded Phage binding ELISA signal, Anti-PSMA Fab of FIAQCQPTWMCTGF (Peptide-180 library clone, tested as clonal phage supernatant with the peptide fused to pIII of the bacteriophage) [Phage-3575] , please. 1.62

Consider the binder SPSYCVPKWMCVGF (Peptide-180 library clone, tested as clonal phage supernatant with the peptide fused to pIII of the bacteriophage) [Phage-3564] and give its measured Phage binding ELISA signal, Anti-PSMA Fab. 1.64

Suppose we examine the binder VAQWCTPSWMCDGF (Peptide-180 library clone, tested as clonal phage supernatant with the peptide fused to pIII of the bacteriophage) [Phage-3569] ; what Phage binding ELISA signal, Anti-PSMA Fab value has been reported? 1.62

Form field: reported Phage binding ELISA signal, Anti-PSMA Fab of EMPLCIPQWMCGGF (Peptide-180 library clone, tested as clonal phage supernatant with the peptide fused to pIII of the bacteriophage) [Phage-3571] 1.62

What does the record list as Phage binding ELISA signal, Anti-PSMA Fab for PEAYCVPSWMCTGF (Peptide-180 library clone, tested as clonal phage supernatant with the peptide fused to pIII of the bacteriophage) [Phage-3568] ? 1.62

// Phage binding ELISA signal, Anti-PSMA Fab lookup, key: EHRICVPQWMCTGF (Peptide-180 library clone, tested as clonal phage supernatant with the peptide fused to pIII of the bacteriophage) [Phage-3563] 1.64

Give its Phage binding ELISA signal, Anti-PSMA Fab value. Item: EDIKCIPRWMCEGF (Peptide-180 library clone, tested as clonal phage supernatant with the peptide fused to pIII of the bacteriophage) [Phage-3574] 1.62

Bench note: what Phage binding ELISA signal, Anti-PSMA Fab did VDKACTPAWMCTGF (Peptide-180 library clone, tested as clonal phage supernatant with the peptide fused to pIII of the bacteriophage) [Phage-3570] show? 1.62
